molecular target: T1, recombinant cynomolgus twin strep-tagged ROR2 extracellular domain (cynomolgus monkey, UniProt A0A7N9D5U8 34-403); test: ELISA, IgG titrated on coated twin-strep cynomolgus ROR2 ECD; fit printed as IC50
T1 construct: extracellular domain; Made in HEK293T, Streptactin purified; also called cynomolgus ROR2; cynomolgus ROR2-TwinStrep
Measurement Kind: IC50 (µg/mL)
The response must be a number in µg/mL with no trailing unit.

Reference set (5 entries):
**Q:** What value of measured IC50 is listed for ERR2-302 (mAb004) (antibody, human IgG1, V domains shown, Full-length chimeric rabbit/human IgG1, human IgH-gamma1 and IgL-lambda constant regions; C-terminal tags HC: LPETG-Strep, LC: G5SLPETG-Strep) VH: QKQLVESGGGLVKPGGSLTLTCTVSGFSLSSYAIGWVRQAPGNGLEWIGIINSYGSTYYASWAKSRSTITRNTNLNTVTLKMTSLTAADTATYFCARSPYGYVSAWGYHRLDLWGQGTLVTISS VL: SYELTQLPSVSVSLGQTARITCGGASIGSKVVHWYQQKPGLAPGLLIYDDDERPSGVPDRFSGSNSGDTATLTISGAQAGDEAEYYCQLWDGSDVVFGGGTQLTVTG ?
**A:** 0.0071

**Q:** Also, ERR2-308 (mAb037) (antibody, human IgG1, V domains shown, Full-length chimeric rabbit/human IgG1, human IgH-gamma1 and IgL-kappa constant regions; C-terminal tags HC: LPETG-Strep, LC: G5SLPETG-Strep) VH: QEQLEESGGRLVTPGTPLTLTCAVSGFSLSNYAMGWVRQAPGEGLEYIGWISAGGGAYYASWVNGRFTISKTSSTVDLKMTSLTAADTATYFCARGASNGCDLWGPGTLVTVSS VL: DPMLTQTPSSVSAVVGGTVTIKCQASQSITSWLSWYQQKPGQPPKLLIYGASHLASGVPSRFKGSGYGTEFTLTISGIQREDAATYYCLGGYSNSDIVFGGGTELEIL please.
**A:** 0.0046

**Q:** Also, ERR2-Top35 (mAb130) (antibody, V domains shown) VH: QSVKESEGGLFKPMDTLTLTCTVSGFSLNTYGVSWVRQAPGNGLEWIGAVGSSGATNYASWAKSRSTITRNTNENTVTLKMTSLTAADTATYFCARDGYYSSGWGPYFSIWGPGTLVTVSS VL: SFVLTQPASVQVNLGQTVSLTCTAETLRSSYASWYQQKPGQAPVLLIYRDTSRPSGVPDRFSGSSSGNTATLTISGAQAGDEADYYCATSDGSGSRYYVFGGGTQLTVTG please.
**A:** 0.0531

**Q:** Also, XBR2-401 (mAb003) (antibody, human IgG1, V domains shown, Full-length chimeric rabbit/human IgG1 (kappa) with C-terminal tags HC: LPETG-Strep, LC: G5SLPETG-Strep) VH: QSVKESEGGLFKPTDTLTLTCTVSGFSLSSYGVTWVRQAPGSGLEWIGYINTAGNTYYASWAKSRSTITRNTNENTVTLKMTSLTAADTATYFCARDWTSLNIWGPGTLVTVSS VL: DPMLTQTPSSTSTAVGDTVTIKCQASQSISSDLSWYQQKPGQRPKLLIYQASTLASGVPSRFKGSGYGTEYTLTISGVQREDAAIYYCLGGYADASYRTAFGGGTKLEIK please.
**A:** 0.0433

**Q:** Also, ERR2-317 (mAb006) (antibody, human IgG1, V domains shown, Full-length chimeric rabbit/human IgG1, human IgH-gamma1 and IgL-kappa constant regions; C-terminal tags HC: LPETG-Strep, LC: G5SLPETG-Strep) VH: QSLEESGGRLVTPGTPLTLTCTASGFSLSSYDMIWVRQAPGKGLEYIGIINAGGNTYYASWAKGRFTISRTSTTVDLKMTSPTTEDTATYFCARGSSWTGDIWGPGTLVTVSS VL: DPVLTQTPSSTSAAVGGTVTIKCQASQSISSYLSWYQQKPGQPPKQLIYAASTLASGVPSRFKGSGSGTEYTLTISGVQREDAATYYCLGGYASASYQTAFGGGTKVEIK please.
**A:** 0.019

Next:
**Q:** What value of measured IC50 is listed for ERR2-316 (mAb005) (antibody, human IgG1, V domains shown, Full-length chimeric rabbit/human IgG1, human IgH-gamma1 and IgL-kappa constant regions; C-terminal tags HC: LPETG-Strep, LC: G5SLPETG-Strep; also called mAb0005) VH: QKQLVESGGRLVTPGGSLTLTCTVSGFSLSKYGVSWVRQAPGSGLEYIGTIGGSGTSYYASWAKSRSTITRNTNLNTVTLKMTSLTAADTATYFCARYFGWNTGFDIWGPGTLVTISS VL: DPVMTQTPSSVSEPVGGTVTIKCQASQSISNALAWYQQKPGQPPKRLIYKASTPASGVPSRFKGSRSGTEYTLTISGVQREDAATYYCLGFSVVSNDGWAFGAGTNVEIK ?
**A:** 0.044

Where these numbers come from: patent US20190031754A1
